This collection of values is drawn from patent US20100093714A1.

Kindly state pKi for each of the entries shown.
biological target: human adenosine A1 receptor (Homo sapiens, UniProt P30542); experiment: Adenosine A1 Receptor Functional Assay (A1GAL2); conditions: CHO-K1 cells, cAMP inducible beta-galactosidase reporter, 4nM r-PIA/1 uM Forskolin agonist challenge
Sequence (P30542 whole entry): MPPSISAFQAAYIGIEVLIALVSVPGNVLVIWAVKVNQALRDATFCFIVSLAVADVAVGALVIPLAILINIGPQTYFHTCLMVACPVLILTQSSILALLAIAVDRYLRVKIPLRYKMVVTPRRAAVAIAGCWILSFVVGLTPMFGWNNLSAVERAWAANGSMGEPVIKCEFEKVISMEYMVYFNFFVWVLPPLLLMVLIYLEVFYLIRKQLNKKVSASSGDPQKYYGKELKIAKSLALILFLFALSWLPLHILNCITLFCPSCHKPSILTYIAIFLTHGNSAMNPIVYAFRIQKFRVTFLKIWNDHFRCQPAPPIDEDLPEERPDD
Give only the number. pKi is defined as minus log10 of concentration in molar units.

Fill in the blank: the reported pKi of "C[C@@H]1CN(C(=O)c2cc3c(N)nc(-c4cccc(C#N)c4)nc3s2)C[C@H](C)O1" is ____. 6.22

Fill in the blank: the reported pKi of "Cc1ccc(-c2nc(N)c3cc(C(=O)N4CCOCC4)sc3n2)o1" is ____. 6.78

Fill in the blank: the reported pKi of "N#Cc1cccc(-c2nc(N)c3cc(C(=O)NCCN4CCOCC4)sc3n2)c1" is ____. 7.28

Fill in the blank: the reported pKi of "CC(C)c1ccc(-c2nc(N)c3cc(C(=O)N4CCOCC4)sc3n2)o1" is ____. 6.28

Fill in the blank: the reported pKi of "N#Cc1cccc(-c2nc(N)c3cc(C(=O)NCc4ccccn4)sc3n2)c1" is ____. 6.95
